These data points were gathered from ChEMBL document CHEMBL4219260.

# Test system: T47D
# Measurement Description: Antiproliferative activity against human T47D cells after 72 hrs by CellTiter-Glo assay
# Assay type: functional, cell-based
Property Name: IC50 (µM)

>>> val("COC1=CC(=O)c2c(O)cccc2C1=O")
2

(a) NC(=O)COC1=CC(=O)c2c(O)cccc2C1=O
(b) CN(C)C(=O)COC1=CC(=O)c2c(O)cccc2C1=O
**Query** Given a and given b , which shows the smaller recorded IC50? Label of pick, please.
**Result** b
